molecular target: TrkB (Homo sapiens (Human), UniProt Q16620); assay: TrkB activity, off-chip mobility shift assay (LabChip 3000); format: biochemical; conditions: 70 μM ATP (ATP Km); n/d = none detected
Sequence (Q16620 32-822): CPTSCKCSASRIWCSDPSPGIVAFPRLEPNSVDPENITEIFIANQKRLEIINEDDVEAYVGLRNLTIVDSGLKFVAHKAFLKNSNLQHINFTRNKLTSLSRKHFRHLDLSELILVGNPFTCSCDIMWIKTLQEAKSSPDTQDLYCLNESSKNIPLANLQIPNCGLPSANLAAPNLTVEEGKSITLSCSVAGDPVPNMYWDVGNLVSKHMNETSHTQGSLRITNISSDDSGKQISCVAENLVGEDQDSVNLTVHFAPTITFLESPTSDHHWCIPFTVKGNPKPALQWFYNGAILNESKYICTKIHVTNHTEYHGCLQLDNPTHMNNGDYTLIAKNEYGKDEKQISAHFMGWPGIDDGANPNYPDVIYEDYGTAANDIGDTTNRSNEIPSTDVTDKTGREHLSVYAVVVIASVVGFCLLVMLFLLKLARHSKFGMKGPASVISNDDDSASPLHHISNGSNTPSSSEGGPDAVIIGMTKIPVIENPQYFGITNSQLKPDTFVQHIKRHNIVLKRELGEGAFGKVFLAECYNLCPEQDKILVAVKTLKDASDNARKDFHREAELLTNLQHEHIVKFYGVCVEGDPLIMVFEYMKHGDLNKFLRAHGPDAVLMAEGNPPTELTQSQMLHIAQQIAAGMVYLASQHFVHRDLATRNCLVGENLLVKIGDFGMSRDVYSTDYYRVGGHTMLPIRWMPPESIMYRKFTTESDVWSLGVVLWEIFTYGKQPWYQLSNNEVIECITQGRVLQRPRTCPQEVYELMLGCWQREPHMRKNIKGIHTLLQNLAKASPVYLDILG
pIC50: −log10 of the molar value. Structures can show the parent of a compound that is named as a salt.
quantity_kind: pIC50

Record excerpt, results attached:
COc1ccc(COc2ccc(Cn3cnc4cc(C5=CC6(C)CCCN5C6)ccc43)cc2OC)cn1 (stereo not shown); 6.05
COc1ccc(-c2cnc3c(c2)ncn3Cc2ccc(OC(C)c3ccc(OC)nc3)c(OC)c2)cn1 (stereo not shown) [Ex. 3-58-2, formate]; 7.21
COc1ccc(COc2ccc(Cn3cnc4cc(N5CCC[C@H]5C(=O)O)cnc43)cc2OC)cn1; 7.89

[I] COc1ccc(COc2ccc(Cn3cnc4cc(N5CC6(CCNCC6)C5)cnc43)cc2OC)cn1
[II] COc1cc(Cn2c(N)nc3cc(-c4cnn(C)c4)cnc32)ccc1OCc1ccc(SC(F)(F)F)cc1
[III] COc1ccc(COc2ccc(Cn3c(N)nc4cc(-c5ccccc5)cnc43)cc2OC)cn1
[IV] COc1ccc(C(C)Oc2ccc(Cn3cnc4cc(-c5ccnn5C)cnc43)cc2OC)cn1 (stereo not shown) [Ex. 3-58-1, formate]
[V] COc1cc(Cn2c(N)nc3cc(-c4cnn(C)c4)cnc32)ccc1OCc1ccc(C(F)(F)F)cc1
Lookup: Please give the order of these molecules when sorted by pIC50, largest value leading. Output spec: labels arranged per the requested ranking.
Found: V, II, III, I, IV

[I] COc1cc(Cn2cnc3cc(C#CCCO)cnc32)ccc1OCc1ccc(C(F)F)nc1
[II] COc1ccc(COc2ccc(Cn3c(N)nc4cc(N5CCN(C)CC5)ccc43)cc2OC)cn1
[III] COc1cc2c(cn1)C(Oc1ccc(Cn3c(N)nc4cc(-c5cnn(C)c5)cnc43)cc1OC)CCC2 (stereo not shown)
[IV] COc1cc(Cn2cnc3cc(-c4cnn(C5CCNCC5)c4)cnc32)ccc1OCc1ccc(C)nc1
[V] COc1cc(C(C)n2cnc3cc(C#CCCO)ccc32)ccc1OCc1ccc(C(F)(F)F)nc1 (stereo not shown)
Lookup: Sort the molecules on pIC50; start with the lowest figure. List each label, following the requested order.
Found: II, V, III, I, IV
(II: 6.50, V: 6.90, III: 7.39, I: 8.40, IV: 9.22)

[A] CCC(Oc1ccc(Cn2c(N)nc3cc(-c4cnn(C)c4)cnc32)cc1OC)c1ccc(OC)nc1 (stereo not shown)
[B] COc1ccc(COc2ccc(Cn3c(N)nc4cc(-c5ccccn5)cnc43)cc2OC)cn1
Lookup: Which gives the smaller pIC50 number: A or B ? Kindly give the label for the entry you pick.
Found: A
(A: 7.59, B: 8.70)
